# tgt: Recombinant human TPH1 (MBP tagged) (Homo sapiens)
# Construct: cloning full length human TPH1 cDNA in to a bacterial pMAL-c5E expression vector; made in house; host or cells: E. coli BL21 (DE3)
# run description: TPH1 in vitro inhibition assay (kinetic fluorescence)
# Format: biochemical
# condition label: read-out: TPH1 Range (TPH1 inhibition IC50)
parameter: IC50

Look over these answered cases.
molecule=Cc1ccn(-c2cc(-c3cccc(F)c3)ccc2[C@@H](Oc2cc(N3CCC4(CC3)CN[C@H](C(=O)O)C4)nc(N)n2)C(F)(F)F)n1 test_result="< 50 nM"
molecule="Nc1nc(O[C@H](c2ccc(-c3ccc(Cl)c(Cl)c3)cc2)C(F)(F)F)cc(N2CCC3(CC2)CN[C@H](C(=O)O)C3)n1 [Example 55cl]" test_result="50 to 300 nM"
molecule=CCOC(=O)c1cccc(-c2cc(Cl)ccc2[C@@H](Oc2cc(N3CCC4(CC3)CN[C@H](C(=O)O)C4)nc(N)n2)C(F)(F)F)c1 test_result="50 to 300 nM"
molecule="Nc1nc(O[C@H](c2ccc(-c3ccc4cnsc4c3)cc2)C(F)(F)F)cc(N2CCC3(CC2)CN[C@H](C(=O)O)C3)n1 [Example 55f]" test_result="50 to 300 nM"
molecule="Nc1nc(O[C@H](c2ccc(-c3cccc(O)c3)cc2)C(F)(F)F)cc(N2CCC3(CC2)CN[C@H](C(=O)O)C3)n1 [Example 55ca]" test_result="50 to 300 nM"

API: the following record is the query input.
### Prompt Which IC50 is reported with Recombinant human TPH1 (MBP tagged) (Homo sapiens) for this entry: CCCCOc1ccc(-c2ccc([C@@H](Oc3cc(N4CCC5(CC4)CN[C@H](C(=O)O)C5)nc(N)n3)C(F)(F)F)c(-n3ccc(C)n3)c2)cc1F ?
### Response < 50 nM

----------
# tgt: Recombinant human TPH1 (MBP tagged) (Homo sapiens, UniProt P17752)
# Construct: cloning full length human TPH1 cDNA in to a bacterial pMAL-c5E expression vector; made in house; host or cells: E. coli BL21 (DE3)
# Sequence (P17752 1-444): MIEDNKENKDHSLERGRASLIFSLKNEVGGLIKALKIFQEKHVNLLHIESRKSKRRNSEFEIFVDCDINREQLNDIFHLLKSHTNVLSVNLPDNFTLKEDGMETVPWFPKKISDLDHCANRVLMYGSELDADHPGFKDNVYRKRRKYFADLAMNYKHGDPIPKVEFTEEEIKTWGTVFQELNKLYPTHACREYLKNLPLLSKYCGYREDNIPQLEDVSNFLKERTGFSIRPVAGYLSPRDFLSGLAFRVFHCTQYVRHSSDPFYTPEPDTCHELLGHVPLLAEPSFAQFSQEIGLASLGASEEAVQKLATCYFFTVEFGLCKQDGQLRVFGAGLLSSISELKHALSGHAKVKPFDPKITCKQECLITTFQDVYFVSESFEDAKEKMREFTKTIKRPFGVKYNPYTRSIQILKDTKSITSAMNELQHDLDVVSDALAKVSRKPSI
# run description: TPH1 in vitro inhibition assay (kinetic fluorescence)
# Format: biochemical
# condition label: read-out: TPH1 Range (TPH1 inhibition IC50)
pIC50: −log10 of the molar value.
parameter: pIC50

Look over these answered cases.
molecule="Cc1ccn(-c2cc(-c3ccc(F)c(F)c3)ccc2[C@@H](Oc2cc(N3CCC4(CC3)CN[C@H](C(=O)O)C4)nc(N)n2)C(F)(F)F)n1 [Example 1ag]" test_result="> 7.30"
molecule="CNC(=O)c1ccc(-c2ccc([C@@H](Oc3cc(N4CCC5(CC4)CN[C@H](C(=O)O)C5)nc(N)n3)C(F)(F)F)cc2)cc1 [Example 55dg]" test_result="6.52 to 7.30"
molecule="Nc1nc(O[C@H](c2ccc(-c3ccc(C(=O)N4CCNCC4)cc3)cc2)C(F)(F)F)cc(N2CCC3(CC2)CN[C@H](C(=O)O)C3)n1 [Example 55dl]" test_result="6.52 to 7.30"
molecule="C[C@@H](Nc1nc(N)nc(N2CCC3(CC2)CNC(C(=O)O)C3)n1)c1ccc2ccccc2c1 (stereo partly drawn) [Example 39e]" test_result="5.52 to 6.52"
molecule="CC(C)c1cccc(-c2ccc([C@@H](Oc3cc(N4CCC5(CC4)CN[C@H](C(=O)O)C5)nc(N)n3)C(F)(F)F)cc2)c1 [Example 55ck]" test_result="5.52 to 6.52"

API: the following record is the query input.
### Prompt What value of pIC50 has been recorded for this entry: CC(Oc1cc(N2CCC3(CC2)CN[C@H](C(=O)O)C3)nc(N)n1)C1C2CC3CC(C2)CC1C3 (stereo partly drawn) [Example 37]
### Response 5.00 to 5.52

----------
# tgt: Recombinant human TPH1 (MBP tagged) (Homo sapiens)
# Construct: cloning full length human TPH1 cDNA in to a bacterial pMAL-c5E expression vector; made in house; host or cells: E. coli BL21 (DE3)
# Sequence (P17752 1-444): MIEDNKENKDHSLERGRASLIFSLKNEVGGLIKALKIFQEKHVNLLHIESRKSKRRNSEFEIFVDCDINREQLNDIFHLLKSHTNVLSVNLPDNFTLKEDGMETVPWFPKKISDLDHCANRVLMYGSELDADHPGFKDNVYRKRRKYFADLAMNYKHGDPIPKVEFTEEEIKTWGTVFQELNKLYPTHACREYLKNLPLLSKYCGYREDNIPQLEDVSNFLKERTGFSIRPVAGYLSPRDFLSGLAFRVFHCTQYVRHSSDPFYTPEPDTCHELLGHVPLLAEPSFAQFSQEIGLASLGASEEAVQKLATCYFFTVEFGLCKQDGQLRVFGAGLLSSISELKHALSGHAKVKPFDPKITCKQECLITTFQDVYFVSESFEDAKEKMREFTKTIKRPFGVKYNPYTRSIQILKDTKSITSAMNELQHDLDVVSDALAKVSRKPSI
# run description: TPH1 in vitro inhibition assay (kinetic fluorescence)
# Assay type: biochemical
# condition label: read-out: TPH1 Range (TPH1 inhibition IC50)
# Experimental: Recombinant human TPH1 (rTPH1 GenBank™ accession no. NP_004179) was expressed by cloning full length human TPH1 cDNA in to a bacterial pMAL-c5E expression vector to produce maltose-binding protein (MBP) TPH1 fusion proteins. […] TPH1 activities were measured in an assay containing 200 mM ammonium sulfate, 7 mM DTT, 50 μg/mL catalase, 25 μM ammonium iron sulfate, 50 mM MES, pH 7.1. […] Fluorescence reads are recorded in kinetic mode for 300 seconds (5 minutes). […]
Recorded measurements of IC50, one per entry

Look over these answered cases.
molecule="Cc1ccn(-c2ccc(-c3ccc(F)c(F)c3)cc2[C@@H](Oc2cc(N3CCC4(CC3)CN[C@H](C(=O)O)C4)nc(N)n2)C(F)(F)F)n1 [Example 19o]" test_result="< 50 nM"
molecule="Nc1nc(O[C@H](c2ccc(Cl)cc2-n2cnc3ccccc32)C(F)(F)F)cc(N2CCC3(CC2)CN[C@H](C(=O)O)C3)n1 [Example 36b]" test_result="50 to 300 nM"
molecule="Cc1ccc(-c2cc(Cl)ccc2[C@@H](Oc2cc(N3CCC4(CC3)CN[C@H](C(=O)O)C4)nc(N)n2)C(F)(F)F)cc1C [Example 34ay]" test_result="50 to 300 nM"
molecule="Nc1nc(O[C@H](c2ccc(Cl)cc2N2CCCC2=O)C(F)(F)F)cc(N2CCC3(CC2)CN[C@H](C(=O)O)C3)n1 [Example 33]" test_result="50 to 300 nM"

API: the following record is the query input.
### Prompt What value of IC50 has been recorded for this entry: Cc1ccn(-c2cc(-c3ccc(S(C)(=O)=O)cc3)ccc2[C@@H](Oc2cc(N3CCC4(CC3)CN[C@H](C(=O)O)C4)nc(N)n2)C(F)(F)F)n1 [Example 1cc]
### Response < 50 nM

----------
Recorded measurements of pIC50, one per entry
# tgt: Recombinant human TPH1 (MBP tagged) (Homo sapiens, UniProt P17752)
# Construct: cloning full length human TPH1 cDNA in to a bacterial pMAL-c5E expression vector; made in house; host or cells: E. coli BL21 (DE3)
# run description: TPH1 in vitro inhibition assay (kinetic fluorescence)
# Assay type: biochemical
# condition label: read-out: TPH1 Range (TPH1 inhibition IC50)
# Procedure: Recombinant human TPH1 (rTPH1 GenBank™ accession no. NP_004179) was expressed by cloning full length human TPH1 cDNA in to a bacterial pMAL-c5E expression vector to produce maltose-binding protein (MBP) TPH1 fusion proteins. […] TPH1 activities were measured in an assay containing 200 mM ammonium sulfate, 7 mM DTT, 50 μg/mL catalase, 25 μM ammonium iron sulfate, 50 mM MES, pH 7.1. […] Fluorescence reads are recorded in kinetic mode for 300 seconds (5 minutes). […]
pIC50: −log10 of the molar value.

compound="Cc1ccc(-c2ccc([C@@H](Oc3cc(N4CCC5(CC4)CN[C@H](C(=O)O)C5)nc(N)n3)C(F)(F)F)cc2)cc1F [Example 55cu]" tgt="Recombinant human TPH1 (MBP tagged) (Homo sapiens, UniProt P17752)" test_result="5.52 to 6.52"
compound=Cc1ccn(-c2cc(-c3cc(Cl)cc(C(F)(F)F)c3)ccc2[C@@H](Oc2cc(N3CCC4(CC3)CN[C@H](C(=O)O)C4)nc(N)n2)C(F)(F)F)n1 tgt="Recombinant human TPH1 (MBP tagged) (Homo sapiens, UniProt P17752)" test_result="6.52 to 7.30"
compound=CCOC(=O)c1ccc([C@@H](Oc2cc(N3CCC4(CC3)CN[C@H](C(=O)O)C4)nc(N)n2)C(F)(F)F)c(-n2ccc(C)n2)c1 tgt="Recombinant human TPH1 (MBP tagged) (Homo sapiens, UniProt P17752)" test_result="> 7.30"

### Prompt What value of pIC50 has been recorded for this entry: Cc1ccn(-c2cc(-c3ccc(-c4nnc(C)o4)c(F)c3)ccc2[C@@H](Oc2cc(N3CCC4(CC3)CN[C@H](C(=O)O)C4)nc(N)n2)C(F)(F)F)n1
### Response > 7.30

### Prompt Now the same for Cc1ccn(-c2cc(-c3ccc(C)c(Cl)c3)ccc2[C@@H](Oc2cc(N3CCC4(CC3)CN[C@H](C(=O)O)C4)nc(N)n2)C(F)(F)F)n1
### Response > 7.30

All figures here come from patent US11759462B2.
